As shown below, each of these binders has a reported Nucleation assay Δ lag at 5 µM compound value.
# assayed-system: Aβ1-40 peptide (monomeric start material of the nucleation assay)
# protocol-details: cell-based or functional assay
Square brackets hold non-standard residues; d marks the D form.
endpoint: Nucleation assay Δ lag at 5 µM compound

- binder: "{N‑methyl}-G[dA][dF][dF][dV][dL]-NH2 (also: TFA salt) [PPI-968: TFA • N-methyl-(Gaffvl)-NH2]"
  reported-measurement: "> 5 ratio of lag time to control"
- binder: "H-[dL][dV][dF][dF][dA]-NMe2 (also: TFA salt) [PPI-993: TFA • H-(lvffa)-dimethylamide]"
  reported-measurement: "1 ratio of lag time to control"
- binder: "{N,N‑diethyl}-G[dA][dF][dF][dV][dL]-NH2 (also: TFA salt) [PPI-1005: TFA • N,N-diethyl-(Gaffvl)-NH2]"
  reported-measurement: "3 ratio of lag time to control"
